System: HCI13 (cells of an ER-positive luminal breast cancer xenograft)
Assay: cell viability (% of vehicle); higher = less cytotoxic;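 note: PDX cells carrying CMV promoter-driven luciferase, viability read as total photon flux per second by IVIS imaging following D-luciferin, vehicle control 0.1% DMSO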
Conditions: 10 µM; 72 h
Sorting guide: entries reporting cell viability beneath 100 go in the y pile, the rest go in the n pile.

Worked set:
INSERT INTO results (molecule, category) VALUES
  ('O=P1(N(CCCl)CCCl)NCCCO1 (configuration not stated) [Cyclophosphamide]', 'n'),
  ('Cc1cc(C(C#N)c2ccc(Cl)cc2)c(Cl)cc1NC(=O)c1cc(I)cc(I)c1O (configuration not stated)', 'y'),
  ('CCC[C@H](C)[C@@]1(CC)C(=O)N=C([O-])NC1=O.[Na+] [Pentobarbital sodium salt]', 'y'),
  ('CCC1(C)CC(=O)NC(=O)C1 [Bemegride]', 'n'),
  ('CN(C)C(=O)C(CCN1CCC(O)(c2ccc(Cl)cc2)CC1)(c1ccccc1)c1ccccc1.Cl [Loperamide HCl]', 'y');

Next, consider the following molecule.
QUERY: Quick check: cell viability of COc1cc2c(c(OC)c1OC)-c1ccc(OC)c(=O)cc1C(NC(C)=O)CC2 (configuration not stated) under 100?
RESULT: y

----------
# cell viability values compiled below
System: UCD52 (cells of a triple-negative basal-like breast cancer xenograft)
Assay: cell viability (% of vehicle); higher = less cytotoxic
Conditions: 10 µM; 72 h
I'd appreciate a reply containing only the number, no unit.

Here is how some compounds turned out for cell viability.
INSERT INTO assay_data (compound, readout_type, recorded_value) VALUES
  ('CCC1=C[C@H]2CN3CCc4c([nH]c5ccccc45)[C@@](C(=O)OC)(C2)[C@@H]13 [Catharanthine]', 'cell viability', 101),
  ('CCC(COC(=O)c1cc(OC)c(OC)c(OC)c1)(c1ccccc1)N(C)C (configuration not stated) [Trimebutine]', 'cell viability', 84.9),
  ('O=P1(NCCCl)OCCCN1CCCl (configuration not stated) [Ifosfamide]', 'cell viability', 104);

Here is another compound to look at.
The reported cell viability of the compound C[N+]1(C)CCCC(OC(=O)C(O)(c2ccccc2)c2ccccc2)C1.[Br-] (configuration not stated) [Mepenzolate Bromide] was 87.5

----------
System: HCI11 (cells of an ER-positive luminal breast cancer xenograft)
Assay: cell viability (% of vehicle); higher = less cytotoxic
Conditions: 10 µM; 72 h
Entries and their measured cell viability follow.
Could you keep your reply to the number by itself?

In the examples that follow, each entry is paired with its recorded cell viability.
INSERT INTO assay_data (compound, recorded_value) VALUES
  ('CN(C)C1C(=O)C(C(N)=O)=C(O)C2(O)C(=O)C3=C(O)c4c(O)cccc4C(C)(O)C3C(O)C12.O.O (centres undefined) [Oxytetracycline Dihydrate]', 83.1),
  ('Cl.O=C1CCC2(O)C3Cc4ccc(O)c5c4C2(CCN3CC2CC2)C1O5 (centres undefined) [Naltrexone HCl]', 108),
  ('CCCN1CC(CSC)CC2c3cccc4[nH]cc(c34)CC21.CS(=O)(=O)O (centres undefined) [Pergolide mesylate]', 87.6),
  ('C#CC1(O)C=CC2C3CCC4=CC(=O)CCC4C3CCC21CC (centres undefined) [Gestodene]', 122),
  ('CNCC(=O)c1ccc(O)c(O)c1.Cl [Adrenalone HCl]', 107);

The recorded cell viability for Cc1cccc(C(C)c2cnc[nH]2)c1C (centres undefined) [Dexmedetomidine] is 105

Short answer for CCC(C(N)=O)N1CCCC1=O (centres undefined) [Levetiracetam] : cell viability was 98
